# System: cancer cells
# Procedure Summary: SRB analysis 3, triple combination, summary over cancer panels
# Assay type: cell-based
# Measurement Parameters: melanoma; UACC62, A375
Reported Property: Positive/Negative (triple combination of KN510, KN713 and the listed anticancer drug)

# Compound, Result Value
rows = [
    ("N.N.[Cl][Pt][Cl] [Cisplatin]", "negative"),
    ("CC(=O)O[C@H]1C(=O)[C@@]2(C)[C@H]([C@H](OC(=O)c3ccccc3)[C@]3(O)C[C@H](OC(=O)[C@H](O)[C@@H](NC(=O)c4ccccc4)c4ccccc4)C(C)=C1C3(C)C)[C@]1(OC(C)=O)CO[C@@H]1C[C@@H]2O [Paclitaxel]", "Positive"),
    ("CCc1c2c(nc3ccc(OC(=O)N4CCC(N5CCCCC5)CC4)cc13)-c1cc3c(c(=O)n1C2)COC(=O)[C@]3(O)CC [Irinotecan]", "Positive"),
    ("O=c1[nH]cc(F)c(=O)[nH]1 [5-FU]", "negative"),
]

# context switch: different compound, same Positive/Negative (triple combination of KN510, KN713 and the listed anticancer drug)
Problem: Give Positive/Negative (triple combination of KN510, KN713 and the listed anticancer drug) only, for Nc1ccn([C@@H]2O[C@H](CO)[C@@H](O)C2(F)F)c(=O)n1 [Gemcitabine] , using cancer cells data.
Solution: Positive
